Test target: Cellular tumor antigen p53 (Homo sapiens) (UniProt P04637)
Sequence (P04637 whole entry, looked up): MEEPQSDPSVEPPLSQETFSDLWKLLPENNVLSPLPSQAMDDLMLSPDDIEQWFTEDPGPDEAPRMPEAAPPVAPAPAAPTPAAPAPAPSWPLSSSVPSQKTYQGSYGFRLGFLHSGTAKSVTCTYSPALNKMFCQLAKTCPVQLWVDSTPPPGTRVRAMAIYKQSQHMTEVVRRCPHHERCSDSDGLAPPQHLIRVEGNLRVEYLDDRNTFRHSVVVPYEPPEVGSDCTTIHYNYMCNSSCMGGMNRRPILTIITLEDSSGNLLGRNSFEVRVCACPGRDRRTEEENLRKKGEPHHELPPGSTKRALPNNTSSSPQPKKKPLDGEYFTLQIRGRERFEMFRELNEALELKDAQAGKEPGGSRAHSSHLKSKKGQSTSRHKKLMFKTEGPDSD
Assay protocol: Primary qHTS for small molecule compounds that upregulate eGFP-tagged delta133p53alpha (in N-terminal) cells. (AID 2060322);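 note: cells pre-induced with doxycycline then dosed without doxycycline; series mostly up to about 56 µM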
Test settings: NCI-H358 eGFP-delta133p53alpha fluorescence, 24 h; stronger effect = higher value
Results filed as inconclusive are left out.
Use -10% as the dividing line for activation, with the line itself on the Y side and lower values as N.

Please review the following examples before continuing.
molecule=CCCCC(F)(F)[C@@]1(O)CC[C@H]2[C@H](CC(=O)[C@@H]2CCCCCCC(=O)O)O1 assigned_label=N
molecule=Nc1ccc(S(=O)(=O)Nc2ncccn2)cc1 assigned_label=Y
molecule=FC(F)(F)c1ccccc1-c1cc(C(F)(F)F)c2nc(C3=NOC4(CCCCC4)C3)[nH]c2c1 assigned_label=Y
molecule=C[C@@H](O)[C@H]1C(=O)N2C(C(=O)OCOC(=O)C(C)(C)C)=C(SC3CN(C4=NCCS4)C3)[C@H](C)[C@H]12 assigned_label=N
molecule="CC1(c2nc3c(C(N)=O)cccc3[nH]2)CCCN1 (centres undefined)" assigned_label=Y

Input line: Does Nc1nc(CC(=O)Nc2ccc(CCNCC(O)c3ccccc3)cc2)cs1 (centres undefined) have a reported activation of at least -10%?
Output line: N

Input line: Does C[C@H](NC(=O)Cc1cc(F)cc(F)c1)C(=O)N[C@H](C(=O)OC(C)(C)C)c1ccccc1 have a reported activation of at least -10%?
Output line: Y

Input line: Does CC(=O)O[C@H]1C[C@@H]2CC[C@H]3[C@H]4C[C@H]([N+]5(C)CCCCC5)[C@@H](OC(C)=O)[C@@]4(C)CC[C@@H]3[C@@]2(C)C[C@H]1N1CCCCC1 have a reported activation of at least -10%?
Output line: Y

Input line: Does CC(O)CCC1C(CO[C@@H]2O[C@H](CO)[C@@H](O)[C@H](O)[C@H]2O)CC(O)CC1(C)C (some centres undefined) have a reported activation of at least -10%?
Output line: Y

Input line: Does CN1C2CCCC1CC(NC(=O)c1nn(C)c3ccccc13)C2 (centres undefined) have a reported activation of at least -10%?
Output line: Y

Input line: Does O=C(OCC(O)CO[C@@H]1O[C@H](C(=O)O)[C@@H](O)[C@H](O)[C@H]1O)c1ccccc1 (some centres undefined) have a reported activation of at least -10%?
Output line: N

Input line: Does CC1=CCC2C(C)(C)CCCC2(C)C1CC12OC1C(O)C(CO)=CC2O (centres undefined) have a reported activation of at least -10%?
Output line: N

Input line: Does O=c1[nH]c2cccc(N3CCN(Cc4ccc(-c5ccccc5)cc4)CC3)c2o1 have a reported activation of at least -10%?
Output line: Y

Input line: Does Cn1c(SCC(=O)N2CCC[C@H]2C(=O)Nc2ccccc2-c2ccccc2)nc2ccccc21 have a reported activation of at least -10%?
Output line: Y

Input line: Does Cn1c(=O)cc(N2CCCC(N)C2)n(Cc2ccccc2C#N)c1=O (centres undefined) have a reported activation of at least -10%?
Output line: Y

Input line: Does CCCn1c(=O)c2[nH]c(-c3ccc(OCC(=O)O)cc3)nc2n(CCC)c1=O have a reported activation of at least -10%?
Output line: Y

Input line: Does CC1(C)S[C@@H]2[C@H](NC(=O)[C@H](N)c3ccccc3)C(=O)N2[C@H]1C(=O)O have a reported activation of at least -10%?
Output line: N

Input line: Does C[C@@H]1O[C@@H](O[C@H]2[C@H](OC(C#N)c3ccc(O)cc3)O[C@H](CO)[C@@H](O)[C@@H]2O)[C@H](O)[C@H](O)[C@H]1O (some centres undefined) have a reported activation of at least -10%?
Output line: N
